# credit: ChEMBL document CHEMBL1139979

// values below are Ki; system is Adenosine receptor A1 (Rattus norvegicus)
Sequence (P25099 whole entry): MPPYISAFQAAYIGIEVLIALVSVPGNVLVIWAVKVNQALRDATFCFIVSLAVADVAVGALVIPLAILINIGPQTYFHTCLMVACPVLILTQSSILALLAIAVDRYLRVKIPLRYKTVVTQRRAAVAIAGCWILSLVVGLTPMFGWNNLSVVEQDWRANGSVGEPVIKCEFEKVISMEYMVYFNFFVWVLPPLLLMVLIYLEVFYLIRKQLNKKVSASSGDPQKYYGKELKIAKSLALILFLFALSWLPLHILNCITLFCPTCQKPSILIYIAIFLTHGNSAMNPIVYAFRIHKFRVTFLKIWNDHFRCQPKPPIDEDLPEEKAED

Cn1c(=O)c2c(nc3n2CCCN3Cc2ccc(F)cc2)n(C)c1=O; > 25 µM

Entry CCCn1c(=O)c2c(nc3n2CCCN3Cc2ccccc2Cl)n(CCC)c1=O under Adenosine receptor A1 (Rattus norvegicus) had Ki of 0.48 µM

Form: item Cn1c(=O)c2c(nc3n2CCCN3Cc2ccc(Cl)cc2Cl)n(C)c1=O ; test system Adenosine receptor A1 (Rattus norvegicus); Ki: ≥ 25 µM

Hey, Adenosine receptor A1 (Rattus norvegicus) data for COc1ccc(CN2CCCn3c2nc2c3c(=O)n(C)c(=O)n2C)cc1 : Ki came out at > 25 µM

Record Cn1c(=O)c2c(nc3n2CCCN3Cc2ccccc2)n(C)c1=O has Adenosine receptor A1 (Rattus norvegicus) Ki equal to 3.58 µM

The reported Adenosine receptor A1 (Rattus norvegicus) Ki of Cn1c(=O)c2c(nc3n2CCCN3C(c2ccccc2)c2ccccc2)n(C)c1=O is > 2.5 µM
